Provide the reported IC50 of each item.
Test system: UniProt P48048
Sequence (P48048 whole entry): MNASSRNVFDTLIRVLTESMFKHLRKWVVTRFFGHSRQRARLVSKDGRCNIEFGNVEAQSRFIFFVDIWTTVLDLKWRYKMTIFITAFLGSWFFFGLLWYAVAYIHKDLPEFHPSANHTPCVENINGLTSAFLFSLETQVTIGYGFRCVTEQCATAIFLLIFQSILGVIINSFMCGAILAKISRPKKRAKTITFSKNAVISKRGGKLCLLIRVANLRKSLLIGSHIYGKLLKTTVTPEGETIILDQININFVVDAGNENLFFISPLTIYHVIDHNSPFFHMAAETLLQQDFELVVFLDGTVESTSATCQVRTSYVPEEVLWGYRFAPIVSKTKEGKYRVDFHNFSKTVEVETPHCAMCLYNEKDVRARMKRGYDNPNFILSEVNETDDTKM
Assay protocol: Thallium Flux Assay
Recorded conditions: CHO T-Rex hROMK stable cell line, 10-point concentration response; read-out: hROMK Th+ Flux IC50
Quick note: give the figure in nM, leave out the unit.

IC50 for Cc1c(CN2CCc3nc(N(C)c4ccc(C#N)c(F)c4)ncc3C2)ccc2c1COC2=O ?
1900

Repeat for the following compound: Cc1c(CN2CCc3nc(Nc4ccc5c(c4C)COC5=O)ncc3C2)ccc2c1COC2=O
790

What do you get for Cc1cn(-c2ncc3c(n2)CCN(CC(O)c2ccc4c(c2C)COC4=O)C3)cn1 (single isomer, unassigned) ?
62

What do you get for Cn1c(=O)oc2ccc(CN3CCc4cc(Nc5ccc(C#N)c(F)c5)ccc4C3)cc21 ?
600

Another: Cc1c(CCN2CCc3nc(Nc4ccc(C#N)c(F)c4)ncc3C2)ccc2c1COC2=O
200

Entry to check: N#Cc1ccc(Nc2ncc3c(n2)CCN(Cc2ccc4c(c2)COC4=O)C3)cc1F
960

Can you check Cc1c(C(O)CN2CCc3nc(-n4cnc5ccccc54)ncc3C2)ccc2c1COC2=O (single isomer, unassigned) next?
157

Also Cc1c(C(O)CN2CCc3nc(-n4ccc5c(C#N)ccnc54)ncc3C2)ccc2c1COC2=O (single isomer, unassigned) [Example 19-II] ?
1900

Can you check CCOC(=O)c1cnc2cnn(-c3ncc4c(n3)CCN(CC(O)c3ccc5c(c3C)COC5=O)C4)c2c1 (single isomer, unassigned) next?
495

Follow-up item: N#Cc1cccc2c1ccn2-c1ncc2c(n1)CCN(CC(O)c1ccc3c(c1)COC3=O)C2 (single isomer, unassigned)
580

Now consider Cc1c(C(O)CN2CCc3nc(-n4ncc5c(C#N)ccnc54)ncc3C2)ccc2c1COC2=O (single isomer, unassigned) [Example 35-I] .
800

Moving on to the next compound: Cc1c(CN2CCc3nc(-n4ncc5cc(C#N)ccc54)ncc3C2)ccc2c1COC2=O
750

Moving on to the next compound: Cc1c(C(O)CN2CCc3nc(-n4ccc5c(C#N)cccc54)ncc3C2)ccc2c1COC2=O (single isomer, unassigned) [Example 1-I]
54

Try this compound too: Cc1c(C(CO)N2CCc3nc(-n4ccc5cc(C#N)cnc54)ncc3C2)ccc2c1COC2=O (single isomer, unassigned)
4700
